Target: CypA (Homo sapiens)
Experiment: biochemical
Format: binding
# strict inequality: koff < 0.2 s⁻¹ yields Yes, everything else yields No

{"COMPOUND_STRUCTURE_STRING": "CC[C@@H]1NC(=O)[C@H]([C@H](O)[C@H](C)CC=Cc2ccc(C(=O)OCCn3ccnc3)cc2OC(C)C)N(C)C(=O)[C@H](C(C)C)N(C)C(=O)[C@H](CC(C)C)N(C)C(=O)[C@H](CC(C)C)N(C)C(=O)[C@@H](C)NC(=O)[C@H](C)NC(=O)[C@H](CC(C)C)N(C)C(=O)[C@H](C(C)C)NC(=O)[C@H](CC(C)C)N(C)C(=O)CN(C)C1=O", "ASSIGNED_LABEL": "No"}
{"COMPOUND_STRUCTURE_STRING": "CC[C@@H]1NC(=O)[C@H]([C@H](O)[C@H](C)CC=Cc2ccc(C(=O)OCCn3ccnc3)cc2C(F)(F)F)N(C)C(=O)[C@H](C(C)C)N(C)C(=O)[C@H](CC(C)C)N(C)C(=O)[C@H](CC(C)C)N(C)C(=O)[C@@H](C)NC(=O)[C@H](C)NC(=O)[C@H](CC(C)C)N(C)C(=O)[C@H](C(C)C)NC(=O)[C@H](CC(C)C)N(C)C(=O)CN(C)C1=O", "ASSIGNED_LABEL": "Yes"}
{"COMPOUND_STRUCTURE_STRING": "CC[C@@H]1NC(=O)[C@H]([C@H](O)[C@H](C)C/C=C/c2ccc(C(=O)OCCn3ccnc3)c3ccccc23)N(C)C(=O)[C@H](C(C)C)N(C)C(=O)[C@H](CC(C)C)N(C)C(=O)[C@H](CC(C)C)N(C)C(=O)[C@@H](C)NC(=O)[C@H](C)NC(=O)[C@H](CC(C)C)N(C)C(=O)[C@H](C(C)C)NC(=O)[C@H](CC(C)C)N(C)C(=O)CN(C)C1=O", "ASSIGNED_LABEL": "Yes"}
{"COMPOUND_STRUCTURE_STRING": "CC[C@@H]1NC(=O)[C@H]([C@H](O)[C@H](C)CC=Cc2ccc(C(=O)OCCn3ccnc3)cc2OC)N(C)C(=O)[C@H](C(C)C)N(C)C(=O)[C@H](CC(C)C)N(C)C(=O)[C@H](CC(C)C)N(C)C(=O)[C@@H](C)NC(=O)[C@H](C)NC(=O)[C@H](CC(C)C)N(C)C(=O)[C@H](C(C)C)NC(=O)[C@H](CC(C)C)N(C)C(=O)CN(C)C1=O", "ASSIGNED_LABEL": "No"}
{"COMPOUND_STRUCTURE_STRING": "CC[C@@H]1NC(=O)[C@H]([C@H](O)[C@H](C)CC=Cc2c(OC)cc(C(=O)OCCn3ccnc3)cc2OC)N(C)C(=O)[C@H](C(C)C)N(C)C(=O)[C@H](CC(C)C)N(C)C(=O)[C@H](CC(C)C)N(C)C(=O)[C@@H](C)NC(=O)[C@H](C)NC(=O)[C@H](CC(C)C)N(C)C(=O)[C@H](C(C)C)NC(=O)[C@H](CC(C)C)N(C)C(=O)CN(C)C1=O", "ASSIGNED_LABEL": "No"}

###

Target: CypA (Homo sapiens, UniProt P62937)
Sequence (P62937 whole entry): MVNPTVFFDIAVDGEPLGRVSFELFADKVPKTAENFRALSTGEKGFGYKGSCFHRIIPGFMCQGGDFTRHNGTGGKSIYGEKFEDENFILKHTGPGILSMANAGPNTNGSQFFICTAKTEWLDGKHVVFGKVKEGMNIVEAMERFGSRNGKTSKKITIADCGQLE
Assay: biochemical
Format: binding
Conditions: SPR, Biacore, 25° C.
Parameter Max Response: see the listing below.
OUTCOME_MEASURE: Max Response (RU)

{"COMPOUND_STRUCTURE_STRING": "CC[C@@H]1NC(=O)[C@H]([C@H](O)[C@H](C)CC=Cc2c(OC)cc(C(=O)OCCn3ccnc3)cc2OC)N(C)C(=O)[C@H](C(C)C)N(C)C(=O)[C@H](CC(C)C)N(C)C(=O)[C@H](CC(C)C)N(C)C(=O)[C@@H](C)NC(=O)[C@H](C)NC(=O)[C@H](CC(C)C)N(C)C(=O)[C@H](C(C)C)NC(=O)[C@H](CC(C)C)N(C)C(=O)CN(C)C1=O", "OUTCOME_MEASURE": "Max Response", "EXPERIMENTAL_RESULT": 7.6}
{"COMPOUND_STRUCTURE_STRING": "CC[C@@H]1NC(=O)[C@H]([C@H](O)[C@H](C)CC=Cc2ccc(C(=O)OCCn3ccnc3)cc2C)N(C)C(=O)[C@H](C(C)C)N(C)C(=O)[C@H](CC(C)C)N(C)C(=O)[C@H](CC(C)C)N(C)C(=O)[C@@H](C)NC(=O)[C@H](C)NC(=O)[C@H](CC(C)C)N(C)C(=O)[C@H](C(C)C)NC(=O)[C@H](CC(C)C)N(C)C(=O)CN(C)C1=O", "OUTCOME_MEASURE": "Max Response", "EXPERIMENTAL_RESULT": 18.7}
{"COMPOUND_STRUCTURE_STRING": "CC[C@@H]1NC(=O)[C@H]([C@H](O)[C@H](C)CC=Cc2ccc(C(=O)OCCn3ccnc3)cc2C(F)(F)F)N(C)C(=O)[C@H](C(C)C)N(C)C(=O)[C@H](CC(C)C)N(C)C(=O)[C@H](CC(C)C)N(C)C(=O)[C@@H](C)NC(=O)[C@H](C)NC(=O)[C@H](CC(C)C)N(C)C(=O)[C@H](C(C)C)NC(=O)[C@H](CC(C)C)N(C)C(=O)CN(C)C1=O", "OUTCOME_MEASURE": "Max Response", "EXPERIMENTAL_RESULT": 13.2}
{"COMPOUND_STRUCTURE_STRING": "CCc1cc(C(=O)OCCn2ccnc2)ccc1C=CC[C@@H](C)[C@@H](O)[C@H]1C(=O)N[C@@H](CC)C(=O)N(C)CC(=O)N(C)[C@@H](CC(C)C)C(=O)N[C@@H](C(C)C)C(=O)N(C)[C@@H](CC(C)C)C(=O)N[C@@H](C)C(=O)N[C@H](C)C(=O)N(C)[C@@H](CC(C)C)C(=O)N(C)[C@@H](CC(C)C)C(=O)N(C)[C@@H](C(C)C)C(=O)N1C", "OUTCOME_MEASURE": "Max Response", "EXPERIMENTAL_RESULT": 4.8}

###

Parameter koff: see the listing below.
Molecular target: CypA (Homo sapiens, UniProt P62937)
Experiment: biochemical
Format: binding
Procedure: CypA binding was carried out using surface plasmon resonance as described (Warne J Biol Chem. 2016 Feb. 26; 291 (9): 4356-73). Surface Plasmon Resonance (SPR) using Biacore at 25° C. was used to study the binding interactions between CypA and various inhibitors. The SPR binding experiments used a duel flow cell with a blank reference. […]

{"COMPOUND_STRUCTURE_STRING": "CC[C@@H]1NC(=O)[C@H]([C@H](O)[C@H](C)CC=Cc2ccc(C(=O)OCCn3ccnc3)cc2C)N(C)C(=O)[C@H](C(C)C)N(C)C(=O)[C@H](CC(C)C)N(C)C(=O)[C@H](CC(C)C)N(C)C(=O)[C@@H](C)NC(=O)[C@H](C)NC(=O)[C@H](CC(C)C)N(C)C(=O)[C@H](C(C)C)NC(=O)[C@H](CC(C)C)N(C)C(=O)CN(C)C1=O", "TARGET_OR_SYSTEM": "CypA (Homo sapiens, UniProt P62937)", "koff / s⁻¹": 0.0425}
{"COMPOUND_STRUCTURE_STRING": "CC[C@@H]1NC(=O)[C@H]([C@H](O)[C@H](C)C/C=C/c2ccc(C(=O)OCCn3ccnc3)cc2)N(C)C(=O)[C@H](C(C)C)N(C)C(=O)[C@H](CC(C)C)N(C)C(=O)[C@H](CC(C)C)N(C)C(=O)[C@@H](C)NC(=O)[C@H](C)NC(=O)[C@H](CC(C)C)N(C)C(=O)[C@H](C(C)C)NC(=O)[C@H](CC(C)C)N(C)C(=O)CN(C)C1=O", "TARGET_OR_SYSTEM": "CypA (Homo sapiens, UniProt P62937)", "koff / s⁻¹": 0.00217}

###

Target: CypA (Homo sapiens, UniProt P62937)
Experiment: biochemical
Type: binding

{"COMPOUND_STRUCTURE_STRING": "CC[C@@H]1NC(=O)[C@H]([C@H](O)[C@H](C)C/C=C/c2ccc(C(=O)OCCn3ccnc3)cc2)N(C)C(=O)[C@H](C(C)C)N(C)C(=O)[C@H](CC(C)C)N(C)C(=O)[C@H](CC(C)C)N(C)C(=O)[C@@H](C)NC(=O)[C@H](C)NC(=O)[C@H](CC(C)C)N(C)C(=O)[C@H](C(C)C)NC(=O)[C@H](CC(C)C)N(C)C(=O)CN(C)C1=O", "kon [M⁻¹ s⁻¹]": 13400}
{"COMPOUND_STRUCTURE_STRING": "CC[C@@H]1NC(=O)[C@H]([C@H](O)[C@H](C)CC=Cc2ccc(C(=O)OCCn3ccnc3)cc2OC)N(C)C(=O)[C@H](C(C)C)N(C)C(=O)[C@H](CC(C)C)N(C)C(=O)[C@H](CC(C)C)N(C)C(=O)[C@@H](C)NC(=O)[C@H](C)NC(=O)[C@H](CC(C)C)N(C)C(=O)[C@H](C(C)C)NC(=O)[C@H](CC(C)C)N(C)C(=O)CN(C)C1=O", "kon [M⁻¹ s⁻¹]": 6360}
{"COMPOUND_STRUCTURE_STRING": "CC[C@@H]1NC(=O)[C@H]([C@H](O)[C@H](C)CC=Cc2ccc(C(=O)OCCn3ccnc3)cc2C(F)(F)F)N(C)C(=O)[C@H](C(C)C)N(C)C(=O)[C@H](CC(C)C)N(C)C(=O)[C@H](CC(C)C)N(C)C(=O)[C@@H](C)NC(=O)[C@H](C)NC(=O)[C@H](CC(C)C)N(C)C(=O)[C@H](C(C)C)NC(=O)[C@H](CC(C)C)N(C)C(=O)CN(C)C1=O", "kon [M⁻¹ s⁻¹]": 4800}
{"COMPOUND_STRUCTURE_STRING": "CC[C@@H]1NC(=O)[C@H]([C@H](O)[C@H](C)CC=Cc2ccc(C(=O)OCCn3ccnc3)cc2OC(C)C)N(C)C(=O)[C@H](C(C)C)N(C)C(=O)[C@H](CC(C)C)N(C)C(=O)[C@H](CC(C)C)N(C)C(=O)[C@@H](C)NC(=O)[C@H](C)NC(=O)[C@H](CC(C)C)N(C)C(=O)[C@H](C(C)C)NC(=O)[C@H](CC(C)C)N(C)C(=O)CN(C)C1=O", "kon [M⁻¹ s⁻¹]": 2250}
